- study conditions: siRNA; further: test system not given here
HELM strings list units from the 5' end as sugar, base in round brackets, then linkage (d deoxyribose, r ribose, m 2'-O-methyl, p phosphodiester). Strings are as the collection lists them, not checked against the first reports. ss, as = sense and antisense strand; [fl2r] = 2'-fluoro
measure: target mRNA knockdown (%)
Value expressed in %; do not type the unit.

Worked cases, target mRNA knockdown given:
substance	measure	reported measurement
RNA1{r(A)p.r(G)p.r(A)p.r(A)p.r(A)p.r(A)p.r(G)p.m(C)p.r(A)p.r(G)p.r(C)p.r(G)p.r(A)p.m(U)p.r(A)p.r(C)p.r(G)p.r(C)p.r(U)p.r(T)p.r(T)}|RNA2{r(A)p.r(G)p.r(C)p.r(G)p.r(U)p.r(A)p.r(U)p.r(C)p.r(G)p.r(C)p.m(U)p.r(G)p.r(C)p.r(U)p.r(U)p.r(U)p.r(U)p.r(C)p.r(U)p.r(T)p.r(T)}$$$RNA1{StrandType:ss}|RNA2{StrandType:as}$	target mRNA knockdown	68
RNA1{r(C)p.m(C)p.r(C)p.m(C)p.r(A)p.m(G)p.r(G)p.m(U)p.r(A)p.m(A)p.r(C)p.m(G)p.r(A)p.r(U)p.r(U)p.m(U)p.r(U)p.r(C)p.r(U)p.r(T)p.r(T)}|RNA2{r(A)p.r(G)p.r(A)p.r(A)p.r(A)p.r(A)p.r(U)p.m(C)p.r(G)p.r(U)p.r(U)p.r(A)p.m(C)p.m(C)p.r(U)p.r(G)p.r(G)p.r(G)p.r(G)p.r(T)p.r(T)}$$$RNA1{StrandType:ss}|RNA2{StrandType:as}$	target mRNA knockdown	69

target mRNA knockdown reading for RNA1{r(A)p.r(G)p.r(C)p.r(C)p.r(C)p.r(A)p.r(G)p.r(A)p.[fl2r](U)p.r(A)p.r(G)p.r(C)p.r(U)p.r(C)p.r(U)p.r(U)p.r(C)p.r(A)p.r(G)p.r(T)p.r(T)}|RNA2{r(C)p.r(U)p.r(G)p.r(A)p.r(A)p.r(G)p.r(A)p.r(G)p.r(C)p.[fl2r](U)p.r(A)p.r(U)p.r(C)p.r(U)p.r(G)p.r(G)p.r(G)p.r(C)p.r(U)p.r(T)p.r(T)}$$$RNA1{StrandType:ss}|RNA2{StrandType:as}$ : 69
